Values were extracted from paper PMC12471299.

Tested on: H9c2 cardiomyocytes
MEASUREMENT_PROTOCOL: Cell viability assay (MTT)
Type: cell-based, rat
TEST_SETTINGS: H9c2, 48 h, 1.0 µM

COMPOUND	cell viability
C=C(C)C1CCC23C(O)CCC(C)C2(C)CCC(C)C3C1c1c[nH]c2ccccc12 (stereo not drawn) [Compound 5, 10,23-dihydro-24,25-dehydroaflavinine]	105.6 ± 3.4 % of control
COC1=C(c2c[nH]c3ccccc23)C(=O)C(CC=C(C)C)=C(c2c[nH]c3ccccc23)C1=O	99.7 ± 3.7 % of control
COc1c(OC)c(-c2c[nH]c3ccccc23)c(OC)c(OC)c1-c1c[nH]c2ccccc12	102.8 ± 7.6 % of control
Cc1c(C)c(O)c2c(c1C)C(C)(O)OC2=O (stereo not drawn) [Compound 3, sclerolide]	102.0 ± 5.5 % of control
Cc1c(C)c(O)c2c(c1C)C(C)C(=O)OC2=O (stereo not drawn)	101.4 ± 5.6 % of control
COc1c(OC)c(-c2c[nH]c3ccc(O)cc23)c(OC)c(OC)c1-c1c[nH]c2ccccc12	101.6 ± 2.2 % of control

====

Listed here: items and their measured IC50 at 24 h.
MEASUREMENT_PROTOCOL: Cell viability assay (MTT)
Assay type: cell-based, rat
TEST_SETTINGS: rat, H9c2 cardiomyocytes; H9c2, 24 h; read-out: Cytotoxicity IC50
Protocol: Rat cardiomyocyte H9c2 cells were kindly provided by Prof. Dr. Gunhild von Amsberg from the Martini-Klinik Prostate Cancer Center, University Hospital Hamburg-Eppendorf, Hamburg, Germany. […] Compounds at concentrations up to 100 µM were added to the wells for 24h or 48 h, and the viability of the cells was measured using an MTT (3-(4,5-dimethylthiazol-2-yl)-2,5-diphenyltetrazolium bromide) assay, which was performed according to the manufacturer’s instructions (Sigma-Aldrich, Munich, Germany). […]
RESULT_TYPE: IC50 at 24 h

> print(dat)
                                   compound   result.type  experimental.value
1  COc1c(OC)c(-c2c[nH]c3ccccc23)c(OC)c(OC)c1-c1c[nH]c2ccccc12 [Compound 7, asterriquinol D dimethyl ether]  IC50 at 24 h            > 100 µM
2  COc1c(OC)c(-c2c[nH]c3ccc(O)cc23)c(OC)c(OC)c1-c1c[nH]c2ccccc12 [Compound 8, petromurin C]  IC50 at 24 h            > 100 µM
3  Cc1c(C)c(O)c2c(c1C)C(C)C(=O)OC2=O (stereo not drawn) [Compound 4, sclerin]  IC50 at 24 h            > 100 µM

====

MEASUREMENT_PROTOCOL: Cell viability assay (MTT)
Format: cell-based, human
TEST_SETTINGS: human, MCF-7 breast cancer cells; MCF-7, 24 h; read-out: Cytotoxicity IC50
Listed here: items and their measured IC50 at 24 h.
RESULT_TYPE: IC50 at 24 h

> print(dat)
                                   compound  experimental.value
1  Cc1c(C)c(O)c2c(c1C)C(C)C(=O)OC2=O (stereo not drawn)            > 100 µM
2  COc1c(OC)c(-c2c[nH]c3ccccc23)c(OC)c(OC)c1-c1c[nH]c2ccccc12            > 100 µM
3  COc1c(OC)c(-c2c[nH]c3ccc(O)cc23)c(OC)c(OC)c1-c1c[nH]c2ccccc12            > 100 µM
